Cited source for all entries: ChEMBL document CHEMBL1131710

molecular target: D(1A) dopamine receptor (Rattus norvegicus, UniProt P18901); experiment: In vitro binding affinity against Dopamine receptor D1 of rat striatum using [3H]SCH-23390
Sequence (P18901 whole entry): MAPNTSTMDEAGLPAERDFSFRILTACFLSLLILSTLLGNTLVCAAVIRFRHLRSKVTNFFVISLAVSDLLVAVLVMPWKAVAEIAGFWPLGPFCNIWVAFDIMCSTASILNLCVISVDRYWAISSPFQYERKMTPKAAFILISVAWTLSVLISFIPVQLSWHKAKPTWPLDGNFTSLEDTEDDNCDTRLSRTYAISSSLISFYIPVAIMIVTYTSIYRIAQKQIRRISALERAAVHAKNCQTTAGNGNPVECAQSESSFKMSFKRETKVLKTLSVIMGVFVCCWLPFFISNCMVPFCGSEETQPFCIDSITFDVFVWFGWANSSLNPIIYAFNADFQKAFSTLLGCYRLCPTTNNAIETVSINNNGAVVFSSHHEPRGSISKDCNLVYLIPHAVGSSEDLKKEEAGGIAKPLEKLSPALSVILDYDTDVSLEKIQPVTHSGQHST
Readout Label: Ki (µM)

Worked cases, Ki given:
# value lookup — system D(1A) dopamine receptor (Rattus norvegicus, UniProt P18901), readout Ki, item O=C1c2ccccc2CN1CCCCN1CCC(c2ccccc2)C1 (configuration not stated)
1.95

Short answer please: Ki, D(1A) dopamine receptor (Rattus norvegicus, UniProt P18901), entry O=C(c1cccc(CN2CCC(c3ccc(Cl)cc3)C2)c1)N1CCCCC1 (configuration not stated)
37.6

Record O=C1c2ccccc2CN1CCCCN1CCC(c2ccc(Cl)cc2)C1 (configuration not stated) : what is its Ki with D(1A) dopamine receptor (Rattus norvegicus, UniProt P18901)?
1.62

I = O=C1c2ccccc2S(=O)(=O)N1CCCCN1CCC(c2ccc(Cl)cc2)C1 (configuration not stated)
II = O=C1c2ccccc2S(=O)(=O)N1CCCCN1CCC(c2ccccc2)C1 (configuration not stated)
III = O=C1c2ccccc2S(=O)(=O)N1CCCCN1CCC(c2ccc(F)cc2)C1 (configuration not stated)
IV = O=C(c1cccc(CN2CCC(c3ccccc3)C2)c1)N1CCCCC1 (configuration not stated)
Arrange items by their Ki values in increasing order. // ordering of labels required in reply
I, III, II, IV
(I: 1.57 µM, III: 6.67 µM, II: 12.5 µM, IV: 88.1 µM)
